Source of measurements: ChEMBL document CHEMBL2021794

- Test system: HCT-116
- experiment-summary: Growth inhibition of human HCT116 cells after 48 hrs by SRB assay
- Assay type: functional
- protocol-conditions: HCT-116, 48 h
// classify: if (GI50 < 10 µM) Yes else No

compound: c1ccc(CN2CCN(c3ccc(C(c4ccccc4)C45CC6CC(CC(C6)C4)C5)cc3)CC2)cc1 (stereo unspecified)
label-class: No

Is 10 µM strictly greater than the compound's reported GI50? compound: CN1CCN(c2ccc(C(c3ccccc3)C34CC5CC(CC(C5)C3)C4)cc2)CC1 (stereo unspecified)
Yes

Is 10 µM strictly greater than the compound's reported GI50? compound: CCN1CCN(c2ccc(C(c3ccccc3)C34CC5CC(CC(C5)C3)C4)cc2)CC1 (stereo unspecified)
Yes

Is 10 µM strictly greater than the compound's reported GI50? compound: c1ccc(C(c2ccc(N3CCN(C4CCCCC4)CC3)cc2)C23CC4CC(CC(C4)C2)C3)cc1 (stereo unspecified)
No

Is 10 µM strictly greater than the compound's reported GI50? compound: c1ccc(C(c2ccc(N3CCNCC3)cc2)C23CC4CC(CC(C4)C2)C3)cc1 (stereo unspecified)
Yes

---

- Tested on: OVCAR-5
- experiment-summary: Growth inhibition of human OVCAR5 cells after 48 hrs by SRB assay
- Assay type: functional
- protocol-conditions: OVCAR-5, 48 h
Items are presented alongside their recorded TGI.
Field format: number, assumed µM, no unit text.

These recorded examples may help you get a feel for the data.
compound: c1ccc(C(c2ccc(N3CCOCC3)cc2)C23CC4CC(CC(C4)C2)C3)cc1 (configuration not stated)
value-units: µM
TGI: 100
--
compound: CCN1CCN(c2ccc(C(c3ccccc3)C34CC5CC(CC(C5)C3)C4)cc2)CC1 (configuration not stated)
value-units: µM
TGI: 24.5
--
compound: c1ccc(CN2CCN(c3ccc(C(c4ccccc4)C45CC6CC(CC(C6)C4)C5)cc3)CC2)cc1 (configuration not stated)
value-units: µM
TGI: 100

Please indicate TGI recorded for c1ccc(C(c2ccc(N3CCNCC3)cc2)C23CC4CC(CC(C4)C2)C3)cc1 (configuration not stated)
7.33

Please indicate TGI recorded for CN1CCN(c2ccc(C(c3ccccc3)C34CC5CC(CC(C5)C3)C4)cc2)CC1 (configuration not stated)
41.9

Please indicate TGI recorded for c1ccc(C(c2ccc(N3CCN(C4CCCCC4)CC3)cc2)C23CC4CC(CC(C4)C2)C3)cc1 (configuration not stated)
98.2

Please indicate TGI recorded for O=c1[nH]cc(F)c(=O)[nH]1 [FLUOROURACIL]
100

---

Items are presented alongside their recorded TGI.
- System: HCT-116
- experiment-summary: Growth inhibition of human HCT116 cells after 48 hrs by SRB assay
- Format: functional
- protocol-conditions: HCT-116, 48 h
Field format: number, assumed µM, no unit text.

These recorded examples may help you get a feel for the data.
compound: O=c1[nH]cc(F)c(=O)[nH]1
value-units: µM
TGI: 100
--
compound: c1ccc(C(c2ccc(N3CCNCC3)cc2)C23CC4CC(CC(C4)C2)C3)cc1 (configuration not stated)
value-units: µM
TGI: 6.54
--
compound: c1ccc(CN2CCN(c3ccc(C(c4ccccc4)C45CC6CC(CC(C6)C4)C5)cc3)CC2)cc1 (configuration not stated)
value-units: µM
TGI: 100
--
compound: c1ccc(C(c2ccc(N3CCOCC3)cc2)C23CC4CC(CC(C4)C2)C3)cc1 (configuration not stated)
value-units: µM
TGI: 100

Please indicate TGI recorded for c1ccc(C(c2ccc(N3CCN(C4CCCCC4)CC3)cc2)C23CC4CC(CC(C4)C2)C3)cc1 (configuration not stated)
100

Please indicate TGI recorded for CN1CCN(c2ccc(C(c3ccccc3)C34CC5CC(CC(C5)C3)C4)cc2)CC1 (configuration not stated)
9.37

Please indicate TGI recorded for CCN1CCN(c2ccc(C(c3ccccc3)C34CC5CC(CC(C5)C3)C4)cc2)CC1 (configuration not stated)
32.9
